- assayedSystem: Coagulation factor XII (Homo sapiens, UniProt P00748);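 further: activated factor XIIa alpha cleaving a fluorogenic AMC peptide substrate; inhibitor potency from loss of enzyme activity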
- Sequence (P00748 20-372 limits assumed): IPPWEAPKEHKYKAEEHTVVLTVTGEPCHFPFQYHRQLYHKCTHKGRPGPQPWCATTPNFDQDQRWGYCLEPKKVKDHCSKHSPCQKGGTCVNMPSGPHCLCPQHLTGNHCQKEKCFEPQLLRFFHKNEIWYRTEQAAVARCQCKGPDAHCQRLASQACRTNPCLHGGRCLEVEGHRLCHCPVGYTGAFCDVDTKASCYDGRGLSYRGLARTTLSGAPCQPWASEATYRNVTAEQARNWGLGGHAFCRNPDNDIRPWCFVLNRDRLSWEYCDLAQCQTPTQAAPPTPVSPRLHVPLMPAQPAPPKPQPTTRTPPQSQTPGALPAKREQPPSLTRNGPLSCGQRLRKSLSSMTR
- Sequence (P00748 373-615 limits assumed): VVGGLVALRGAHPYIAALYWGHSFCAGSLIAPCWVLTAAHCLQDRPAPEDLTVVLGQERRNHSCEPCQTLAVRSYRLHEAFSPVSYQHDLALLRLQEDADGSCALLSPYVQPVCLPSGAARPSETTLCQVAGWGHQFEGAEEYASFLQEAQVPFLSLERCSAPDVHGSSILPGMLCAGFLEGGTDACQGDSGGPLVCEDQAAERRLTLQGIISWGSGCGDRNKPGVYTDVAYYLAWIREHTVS
- Type: functional
Active and inactive are the calls of the source.
Thanks in advance; please answer with one of these: active, inactive

Challenge: For this compound, state the assay outcome: `COc1ccc2c(c1)CCc1c(C(=O)NCc3ccc(F)cc3)noc1-2`
Response given: active

Challenge: For this compound, state the assay outcome: O=C(Nc1ccccc1Cl)C1CC(=O)N(c2ccccc2)C1 (centres undefined)
Response given: inactive

Challenge: For this compound, state the assay outcome: `O=[N+]([O-])c1cncc([N+](=O)[O-])c1Nc1ccccc1Cl`
Response given: inactive

Challenge: For this compound, state the assay outcome: `COC(=O)c1ccc(Nc2nc(C)cc(=O)[nH]2)cc1`
Response given: inactive
